assayed target: monoamine oxidase-A (MAO-A) (Rattus norvegicus, UniProt P21396)
Sequence (P21396 whole entry): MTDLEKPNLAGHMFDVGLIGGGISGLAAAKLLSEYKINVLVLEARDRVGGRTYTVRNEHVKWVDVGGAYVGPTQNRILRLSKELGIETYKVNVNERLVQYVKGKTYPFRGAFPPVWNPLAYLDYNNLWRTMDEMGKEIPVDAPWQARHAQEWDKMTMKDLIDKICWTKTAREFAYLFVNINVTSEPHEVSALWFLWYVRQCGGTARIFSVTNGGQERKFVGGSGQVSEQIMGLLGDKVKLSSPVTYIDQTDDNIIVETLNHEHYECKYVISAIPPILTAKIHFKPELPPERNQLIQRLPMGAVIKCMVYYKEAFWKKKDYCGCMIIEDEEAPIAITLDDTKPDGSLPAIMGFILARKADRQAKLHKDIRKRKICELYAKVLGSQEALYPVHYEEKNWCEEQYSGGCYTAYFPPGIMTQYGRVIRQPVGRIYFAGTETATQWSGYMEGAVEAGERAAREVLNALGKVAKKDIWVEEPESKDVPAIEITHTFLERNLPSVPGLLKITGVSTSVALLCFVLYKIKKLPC
protocol details: Inhibition of rat monoamine oxidase-A at 10 uM
reported endpoint: inhibition at 10 µM (%)
The reply should contain only the number, in %.

Lookup: Which inhibition at 10 µM reading was recorded for the compound CCOc1cccc(NC(=O)c2ccc(N3CCCC3)c(C(F)(F)F)c2)c1 ?
Found: 61

* * *

protocol details: Bioavailability in mouse at 5 mg/kg, ip
Format: ADME, organism-based
protocol conditions: in vivo
reported endpoint: bioavailability (%)
# output: bare number, implied unit %

Lookup: Using the record for CCOc1cccc(NC(=O)c2ccc(N3CCCC3)c(C(F)(F)F)c2)c1 , report its bioavailability.
Found: 74

* * *

protocol details: Intrinsic clearance in mouse liver microsomes measured per mg of protein
Type: ADME, Microsome
reported endpoint: clearance (µL/min/mg)
Give the quantity in µL/min/mg, number only.

Lookup: # query: clearance of entry CCOc1cccc(NC(=O)c2ccc(N3CCCC3)c(C(F)(F)F)c2)c1
Found: 109

Lookup: Look up clearance: COc1cccc(NC(=O)c2ccc(N3CCC(C)CC3)c([N+](=O)[O-])c2)c1
Found: 396

Lookup: # lookup: clearance of COc1cccc(NC(=O)c2cnc(N3CCC(C)CC3)c(C(F)(F)F)c2)c1
Found: 107

Lookup: Query: clearance; subject: COc1cccc(NC(=O)c2ccc(N3CCOCC3)c([N+](=O)[O-])c2)c1
Found: 18

* * *

protocol details: Ratio of drug level in brain to plasma in mouse at 2.5 mg/kg, iv
Type: ADME, organism-based
Set-up: dose 2.5 mg/kg, route intravenous
protocol conditions: read-out: BPR
reported endpoint: Kp
Just the number, please.

Lookup: What value of Kp has been reported for the following compound? CCOc1cccc(NC(=O)c2ccc(N3CCCC3)c(C(F)(F)F)c2)c1
Found: 0.5

* * *

Tested on: Liver microsomes
protocol details: Intrinsic clearance in human liver microsomes measured per mg of protein
Assay type: ADME, Microsome
compounds and their reported clearance
// return numeric value only (unit: µL/min/mg, not printed)

{"columns": ["compound", "readout units", "clearance"],
 "data": [
  ["COc1cccc(NC(=O)c2ccc(N3CCC(C)CC3)c([N+](=O)[O-])c2)c1", "µL/min/mg", 154]
]}

Now look at this one.
Lookup: Give its clearance value. Item: COc1cccc(NC(=O)c2ccc(S(=O)(=O)N3CC(C)CC(C)C3)c(F)c2)c1 (racemic)
Found: 538

* * *

assayed target: monoamine oxidase-B (MAO-B) (Rattus norvegicus)
Sequence (P19643 whole entry): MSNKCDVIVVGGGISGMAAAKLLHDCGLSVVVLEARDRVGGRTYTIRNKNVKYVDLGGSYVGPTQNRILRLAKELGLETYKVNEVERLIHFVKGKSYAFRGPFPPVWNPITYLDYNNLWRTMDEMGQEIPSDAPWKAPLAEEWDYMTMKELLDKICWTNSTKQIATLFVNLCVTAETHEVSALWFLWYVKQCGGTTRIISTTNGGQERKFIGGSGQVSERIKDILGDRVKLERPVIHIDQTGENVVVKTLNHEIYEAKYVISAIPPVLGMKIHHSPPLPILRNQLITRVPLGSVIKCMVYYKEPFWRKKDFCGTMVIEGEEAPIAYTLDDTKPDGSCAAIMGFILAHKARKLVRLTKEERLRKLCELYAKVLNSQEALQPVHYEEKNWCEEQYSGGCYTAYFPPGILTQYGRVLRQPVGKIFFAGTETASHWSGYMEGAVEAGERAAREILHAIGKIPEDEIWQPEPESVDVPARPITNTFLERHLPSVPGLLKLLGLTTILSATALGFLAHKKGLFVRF
protocol details: Inhibition of rat monoamine oxidase-B at 10 uM
reported endpoint: inhibition at 10 µM (%)
Answer in %, number only, no unit symbol.

Lookup: // inhibition at 10 µM lookup, key: CCOc1cccc(NC(=O)c2ccc(N3CCCC3)c(C(F)(F)F)c2)c1
Found: 39

* * *

protocol details: Clearance in mouse at 2.5 mg/kg, iv
Type: ADME, organism-based
Design: dose 2.5 mg/kg, route intravenous
protocol conditions: in vivo
reported endpoint: clearance (mL/min/kg)
Numbers only; they are read as mL/min/kg.

Lookup: Endpoint output: clearance of CCOc1cccc(NC(=O)c2ccc(N3CCCC3)c(C(F)(F)F)c2)c1 . Value?
Found: 87

* * *

assayed target: Trace amine-associated receptor 1 (Homo sapiens, UniProt Q96RJ0)
Sequence (Q96RJ0 whole entry): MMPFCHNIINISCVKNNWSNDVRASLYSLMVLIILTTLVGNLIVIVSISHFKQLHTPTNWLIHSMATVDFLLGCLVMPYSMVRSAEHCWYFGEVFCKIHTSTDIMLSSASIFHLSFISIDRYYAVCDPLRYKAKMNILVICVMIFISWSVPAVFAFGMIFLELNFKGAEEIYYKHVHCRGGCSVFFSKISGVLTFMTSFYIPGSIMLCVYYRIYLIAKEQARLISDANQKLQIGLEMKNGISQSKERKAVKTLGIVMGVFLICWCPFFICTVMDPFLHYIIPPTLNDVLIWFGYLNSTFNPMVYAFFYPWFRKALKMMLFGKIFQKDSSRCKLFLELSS
pKi: −log10 of the molar value.
reported endpoint: pKi

Lookup: pKi for COc1cccc(NC(=O)c2ccc(S(=O)(=O)N3CC(C)CC(C)C3)c(F)c2)c1 (racemic) ?
Found: < 4.70

Lookup: Quick one: pKi for CCOc1cccc(NC(=O)c2ccc(N3CCCC3)c(C(F)(F)F)c2)c1 ?
Found: < 5.30
